test system: 362531-283-R-J2-PDC complex spheroid viability; assay: Anticancer human tumor 362531-283-R-J2-PDC patient-derived colon adenocarcinoma cell line growth inhibition [RAS]; conditions: second compound 0.0949 µM; first compound 10 µM; stronger effect = lower value
Documented viability, T/C across a set of compounds
Express it in %; write the number only.

C[C@@H](NC(=O)c1ncnc(N)c1Cl)c1ncc(C(=O)Nc2cc(C(F)(F)F)c(Cl)cn2)s1 + CCn1c(-c2cccnc2C(C)OC)c2c3cc(ccc31)N1CCOC(CC(NC(=O)C(C(C)C)N(C)C(=O)C3(F)CCN(C(=O)C#CC(C)(C)N(C)C)CC3)C(=O)N3CCCC(N3)C(=O)OCC(C)(C)C2)C1    73.9

Proceeding to the next compound to report its viability, T/C.
Find the recorded viability, T/C belonging to CCC(CC)c1cc(NC2CCC(N)C2)n2nccc2n1 (configuration not stated) + CCn1c(-c2cccnc2C(C)OC)c2c3cc(ccc31)N1CCOC(CC(NC(=O)C(C(C)C)N(C)C(=O)C3(F)CCN(C(=O)C#CC(C)(C)N(C)C)CC3)C(=O)N3CCCC(N3)C(=O)OCC(C)(C)C2)C1 and report it.
4.42

###

test system: 362531-283-R-J2-PDC complex spheroid viability; experiment: Anticancer human tumor 362531-283-R-J2-PDC cell line growth inhibition [RAS]; settings: curve of first compound; second compound 0.003 µM;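 note: spheroids exposed to the agents for 7 days before readout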
measured property: IC50

Find the recorded IC50 belonging to Nc1ccn(C2OC(CO)C(O)C2(F)F)c(=O)n1 (centres undefined) + CCn1c(-c2cc(N3CCN(C)CC3)cnc2C(C)OC)c2c3cc(ccc31)-c1csc(n1)CC(NC(=O)C1CC1C)C(=O)N1CCCC(N1)C(=O)OCC(C)(C)C2 and report it.
0.177 µM

Find the recorded IC50 belonging to CCN1CCN(Cc2ccc(Nc3ncc(F)c(-c4cc(F)c5nc(C)n(C(C)C)c5c4)n3)nc2)CC1 + CCn1c(-c2cc(N3CCN(C)CC3)cnc2C(C)OC)c2c3cc(ccc31)-c1csc(n1)CC(NC(=O)C1CC1C)C(=O)N1CCCC(N1)C(=O)OCC(C)(C)C2 and report it.
0.714 µM

Find the recorded IC50 belonging to CC(C)NCC(C(=O)N1CCN(c2ncnc3c2C(C)CC3O)CC1)c1ccc(Cl)cc1 (centres undefined) + CCn1c(-c2cccnc2C(C)OC)c2c3cc(ccc31)N1CCOC(CC(NC(=O)C(C(C)C)N(C)C(=O)C3(F)CCN(C(=O)C#CC(C)(C)N(C)C)CC3)C(=O)N3CCCC(N3)C(=O)OCC(C)(C)C2)C1 and report it.
> 10 µM

Find the recorded IC50 belonging to CCc1c2c(nc3ccc(O)cc13)-c1cc3c(c(=O)n1C2)COC(=O)[C@]3(O)CC + CCn1c(-c2cccnc2C(C)OC)c2c3cc(ccc31)N1CCOC(CC(NC(=O)C(C(C)C)N(C)C(=O)C3(F)CCN(C(=O)C#CC(C)(C)N(C)C)CC3)C(=O)N3CCCC(N3)C(=O)OCC(C)(C)C2)C1 and report it.
0.0329 µM

Find the recorded IC50 belonging to CC1(O)CCCC1n1c(=O)c(C(F)F)cc2cnc(NC3CCN(S(C)(=O)=O)CC3)nc21 (centres undefined) + CCn1c(-c2cc(N3CCN(C)CC3)cnc2C(C)OC)c2c3cc(ccc31)-c1csc(n1)CC(NC(=O)C1CC1C)C(=O)N1CCCC(N1)C(=O)OCC(C)(C)C2 and report it.
6.11 µM

Find the recorded IC50 belonging to C[C@@H](NC(=O)c1ncnc(N)c1Cl)c1ncc(C(=O)Nc2cc(C(F)(F)F)c(Cl)cn2)s1 + CCn1c(-c2cccnc2C(C)OC)c2c3cc(ccc31)N1CCOC(CC(NC(=O)C(C(C)C)N(C)C(=O)C3(F)CCN(C(=O)C#CC(C)(C)N(C)C)CC3)C(=O)N3CCCC(N3)C(=O)OCC(C)(C)C2)C1 and report it.
> 10 µM

Find the recorded IC50 belonging to O=C(c1ccc(F)c(F)c1Nc1ccc(I)cc1F)N1CC(O)([C@@H]2CCCCN2)C1 + CCn1c(-c2cc(N3CCN(C)CC3)cnc2C(C)OC)c2c3cc(ccc31)-c1csc(n1)CC(NC(=O)C1CC1C)C(=O)N1CCCC(N1)C(=O)OCC(C)(C)C2 and report it.
0.514 µM

###

Documented viability, T/C across a set of molecules
system: 362531-283-R-J2-PDC complex spheroid viability; assay: Anticancer human tumor 362531-283-R-J2-PDC cell line growth inhibition [RAS]; conditions: second compound 0.00316 µM; first compound 0.01 µM; stronger effect = lower value;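 note: spheroids exposed to the agents for 7 days before readout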;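 for viability, T/C: luminescence viability as percent of DMSO vehicle control wells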
Express it in %; write the number only.

// below: answered molecules
CC(C)n1nc(-c2ccc3oc(N)nc3c2)c2c(N)ncnc21 + C=CC(=O)N1CCN(c2nc(OCC3CCCN3C)nc3c(F)c(-c4nc(N)cc(C)c4C(F)(F)F)c(Cl)cc23)C(C)C1    89.2
O=C(c1ccc(F)c(F)c1Nc1ccc(I)cc1F)N1CC(O)([C@@H]2CCCCN2)C1 + C=CC(=O)N1CCN(c2nc(OCC3CCCN3C)nc3c(F)c(-c4nc(N)cc(C)c4C(F)(F)F)c(Cl)cc23)C(C)C1    111
Nc1ccn(C2OC(CO)C(O)C2(F)F)c(=O)n1 (stereo not given) + C=CC(=O)N1CCN(c2nc(OCC3CCCN3C)nc3c(F)c(-c4nc(N)cc(C)c4C(F)(F)F)c(Cl)cc23)C(C)C1    100
C=CC(=O)Nc1cc(Nc2nccc(-c3cn(C)c4ccccc34)n2)c(OC)cc1N(C)CCN(C)C + C=CC(=O)N1CCN(c2nc(OCC3CCCN3C)nc3c(F)c(-c4nc(N)cc(C)c4C(F)(F)F)c(Cl)cc23)C(C)C1    97.4

Find the recorded viability, T/C belonging to CCN1CCN(Cc2ccc(Nc3ncc(F)c(-c4cc(F)c5nc(C)n(C(C)C)c5c4)n3)nc2)CC1 + C=CC(=O)N1CCN(c2nc(OCC3CCCN3C)nc3c(F)c(-c4nc(N)cc(C)c4C(F)(F)F)c(Cl)cc23)C(C)C1 and report it.
99.2

###

Documented viability, T/C across a set of molecules
test system: 362531-283-R-J2-PDC complex spheroid viability; test: Anticancer human tumor 362531-283-R-J2-PDC cell line growth inhibition [RAS]; details: second compound 0.0316 µM; first compound 0.1 µM; stronger effect = lower value;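 note: spheroids exposed to the agents for 7 days before readout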;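 for viability, T/C: luminescence viability as percent of DMSO vehicle control wells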
Express it in %; write the number only.

// below: answered molecules
CCC(CC)c1cc(NC2CCC(N)C2)n2nccc2n1 (stereo not given) + C=CC(=O)N1CCN(c2nc(OCC3CCCN3C)nc3c(F)c(-c4nc(N)cc(C)c4C(F)(F)F)c(Cl)cc23)C(C)C1    115
C[C@@H](NC(=O)c1ncnc(N)c1Cl)c1ncc(C(=O)Nc2cc(C(F)(F)F)c(Cl)cn2)s1 + C#Cc1c(F)ccc2cc(O)cc(-c3ncc4c(N5CC6CCC(C5)N6)nc(OCC56CCCN5CC(F)C6)nc4c3F)c12    111
CC(C)NCC(C(=O)N1CCN(c2ncnc3c2C(C)CC3O)CC1)c1ccc(Cl)cc1 (stereo not given) + C=CC(=O)N1CCN(c2nc(OCC3CCCN3C)nc3c(F)c(-c4nc(N)cc(C)c4C(F)(F)F)c(Cl)cc23)C(C)C1    104

Find the recorded viability, T/C belonging to O=C(c1ccc(F)c(F)c1Nc1ccc(I)cc1F)N1CC(O)([C@@H]2CCCCN2)C1 + C=CC(=O)N1CCN(c2nc(OCC3CCCN3C)nc3c(F)c(-c4nc(N)cc(C)c4C(F)(F)F)c(Cl)cc23)C(C)C1 and report it.
80.8

Find the recorded viability, T/C belonging to CC(C)NCC(C(=O)N1CCN(c2ncnc3c2C(C)CC3O)CC1)c1ccc(Cl)cc1 (stereo not given) + C#Cc1c(F)ccc2cc(O)cc(-c3ncc4c(N5CC6CCC(C5)N6)nc(OCC56CCCN5CC(F)C6)nc4c3F)c12 and report it.
100

###

system: 362531-283-R-J2-PDC complex spheroid viability; assay: Anticancer human tumor 362531-283-R-J2-PDC cell line growth inhibition [RAS]; details: compound 0.316 µM; stronger effect = lower value;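 note: spheroids exposed to the agents for 7 days before readout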;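 for viability, T/C: luminescence viability as percent of DMSO vehicle control wells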
Documented viability, T/C across a set of compounds

// below: answered compounds
CC(=O)OC12COC1CC(O)C1(C)C(=O)C(O)C3=C(C)C(OC(=O)C(O)C(NC(=O)OC(C)(C)C)c4ccccc4)CC(O)(C(OC(=O)c4ccccc4)C21)C3(C)C (configuration not stated)    32.6% [middle of 4 runs]
CCN1CCN(Cc2ccc(Nc3ncc(F)c(-c4cc(F)c5nc(C)n(C(C)C)c5c4)n3)nc2)CC1    65.4% [middle of 4 runs]

Proceeding to the next compound to report its viability, T/C.
Find the recorded viability, T/C belonging to C#Cc1c(F)ccc2cc(O)cc(-c3ncc4c(N5CC6CCC(C5)N6)nc(OCC56CCCN5CC(F)C6)nc4c3F)c12 (configuration not stated) and report it.
94.8% [middle of 8 runs]
